The measured values listed here are drawn from patent US20240018110A1.

# Test system: LNCaP xenograft
# Assay Overview: Biodistribution of 68Ga-labeled compounds in mice bearing LNCaP xenograft
# Format: in vivo
# Condition Summary: Blood, 1 h p.i.
Experimental Endpoint: Biodistribution, Blood (Avg) (% ID/g)
Give bare numbers, in % ID/g.

{"Molecule": "O=C(O)CSCC(NC(=O)NC(CNC(=O)CNC(=O)C(Cc1c2ccccc2cc2ccccc12)NC(=O)C1CCC(CNC(=O)CN2CCN(CC(=O)O)CCN(CC(=O)O)CCN(CC(=O)O)CC2)CC1)C(=O)O)C(=O)O.[68Ga] (stereo not shown) [68Ga-CCZ01194]", "Measured Value": 0.98}
{"Molecule": "O=C(O)CCCC(NC(=O)NC(CCCONC(=O)C(Cc1c2ccccc2cc2ccccc12)NC(=O)C1CCC(CNC(=O)CN2CCN(CC(=O)O)CCN(CC(=O)O)CCN(CC(=O)O)CC2)CC1)C(=O)O)C(=O)O.[68Ga] (stereo not shown) [^68Ga-CCZ02018]", "Measured Value": 0.67}
{"Molecule": "O=C(O)CCC[C@H](OC(=O)N[C@@H](CCCCNC(=O)[C@H](Cc1c2ccccc2cc2ccccc12)NC(=O)[C@H]1CC[C@H](CNC(=O)CCc2ccc(O)c(CN(CCN(CC(=O)O)Cc3cc(CCC(=O)O)ccc3O)CC(=O)O)c2)CC1)C(=O)O)C(=O)O.[68Ga] [^68Ga-AR-113-1]", "Measured Value": 2.42}

Shifting focus to the molecule that follows.
// query For the molecule O=C(O)CSCC(NC(=O)NC(Cc1ccc(NC(=O)C(Cc2c3ccccc3cc3ccccc23)NC(=O)C2CCC(CNC(=O)CN3CCN(CC(=O)O)CCN(CC(=O)O)CCN(CC(=O)O)CC3)CC2)cc1)C(=O)O)C(=O)O.[68Ga] (stereo not shown) [^68Ga-CCZ01188] , what Biodistribution, Blood (Avg) is on record?
// result 3.91

* * *

# Test System: PSMA (Homo sapiens, UniProt Q04609)
# Sequence (Q04609 whole entry): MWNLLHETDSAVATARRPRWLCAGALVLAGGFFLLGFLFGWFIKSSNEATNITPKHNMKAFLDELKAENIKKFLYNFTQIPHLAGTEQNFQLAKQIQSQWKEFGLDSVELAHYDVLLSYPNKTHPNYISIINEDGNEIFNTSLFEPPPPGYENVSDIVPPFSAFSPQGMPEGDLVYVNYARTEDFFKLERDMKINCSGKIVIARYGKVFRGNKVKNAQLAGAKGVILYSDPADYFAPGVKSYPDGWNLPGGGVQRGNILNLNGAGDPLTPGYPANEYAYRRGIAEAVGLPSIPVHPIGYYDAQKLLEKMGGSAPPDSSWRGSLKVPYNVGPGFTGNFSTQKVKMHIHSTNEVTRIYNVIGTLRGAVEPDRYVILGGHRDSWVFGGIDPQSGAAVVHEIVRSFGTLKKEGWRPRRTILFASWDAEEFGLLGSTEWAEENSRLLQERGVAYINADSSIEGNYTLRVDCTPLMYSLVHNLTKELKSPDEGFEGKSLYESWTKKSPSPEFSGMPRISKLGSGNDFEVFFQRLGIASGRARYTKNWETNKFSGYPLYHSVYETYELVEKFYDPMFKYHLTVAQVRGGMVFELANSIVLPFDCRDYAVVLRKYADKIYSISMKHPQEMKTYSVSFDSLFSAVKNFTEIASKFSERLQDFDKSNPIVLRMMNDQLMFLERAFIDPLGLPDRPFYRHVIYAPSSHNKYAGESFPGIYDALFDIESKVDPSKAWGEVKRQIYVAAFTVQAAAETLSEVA
# Assay Overview: In vitro competitive binding assay
# strict inequality: Ki < 20 nM yields yes, everything else yields no

{"Compound": "O=C(O)CCC[C@@H](OC(=O)N[C@@H](CCCCNC(=O)[C@H](Cc1c2ccccc2cc2ccccc12)NC(=O)[C@H]1CC[C@H](CNC(=O)CCc2ccc(O)c(CN(CCN(CC(=O)O)Cc3cc(CCC(=O)O)ccc3O)CC(=O)O)c2)CC1)C(=O)O)C(=O)O [AR-2-113-2, HBED-CC-PSMA-Aad-carbamate]", "Category Label": "no"}
{"Compound": "O=C(O)CCC[C@H](OC(=O)N[C@@H](CCCCNC(=O)[C@H](Cc1c2ccccc2cc2ccccc12)NC(=O)[C@H]1CC[C@H](CNC(=O)CN2CCN(CC(=O)O)CCN(CC(=O)O)CCN(CC(=O)O)CC2)CC1)C(=O)O)C(=O)O [AR-2-050-1, DOTA-PSMA-Aad-carbamate]", "Category Label": "yes"}
{"Compound": "O=C(O)CCC[C@H](OC(=O)N[C@@H](CCCCNC(=O)[C@H](Cc1c2ccccc2cc2ccccc12)NC(=O)[C@H]1CC[C@H](CNC(=O)CCc2ccc(O)c(CN(CCN(CC(=O)O)Cc3cc(CCC(=O)O)ccc3O)CC(=O)O)c2)CC1)C(=O)O)C(=O)O [AR-2-113-1, HBED-CC-PSMA-Aad-carbamate]", "Category Label": "yes"}
{"Compound": "O=C(O)CCC[C@@H](OC(=O)N[C@@H](CCCCNC(=O)[C@H](Cc1c2ccccc2cc2ccccc12)NC(=O)[C@H]1CC[C@H](CNC(=O)CN2CCN(CC(=O)O)CCN(CC(=O)O)CCN(CC(=O)O)CC2)CC1)C(=O)O)C(=O)O [AR-2-050-2, DOTA-PSMA-Aad-carbamate]", "Category Label": "no"}
{"Compound": "O=C(O)CCC[C@H](NC(=O)N[C@@H](CSC[C@@H](NC(=O)[C@H](Cc1c2ccccc2cc2ccccc12)NC(=O)C1CCC(CNC(=O)CN2CCN(CC(=O)O)CCN(CC(=O)O)CCN(CC(=O)O)CC2)CC1)C(=O)O)C(=O)O)C(=O)O (stereo partly drawn) [CCZ02033]", "Category Label": "no"}

With those in mind, consider the next compound.
// query Is 20 nM strictly greater than the compound's reported Ki? compound: O=C(O)CCC[C@H](NC(=O)N[C@@H](CCCCCNC(=O)[C@H](Cc1c2ccccc2cc2ccccc12)NC(=O)C1CCC(CNC(=O)CN2CCN(CC(=O)O)CCN(CC(=O)O)CCN(CC(=O)O)CC2)CC1)C(=O)O)C(=O)O (stereo partly drawn) [CCZ02010]
// result yes
